target: mu opiate receptor (MOR) (Rattus norvegicus); construct: from tissue; host or cells: striatum (membrane preparation); experiment: MOR agonist activity using [35S]GTPgS binding assay in striatal membranes; format: biochemical; conditions: 0.1 μM compound as agonist; Series C-2 table
Observed Property: MOR agonist activity ([35S]GTPgS binding to Gao)
Answer format: number, then unit.

For O=C1CN(Cc2ccccc2)C2(CCNCC2)N1 [Compound C0115M] , what is its reported MOR agonist activity ([35S]GTPgS binding to Gao)?
177.2%

And what about the molecule Cc1ccc(S(=O)(=O)N2CCOC23CCN(CC2CC2)CC3)cc1 [Compound C0134M] ?
158.5%

And what about the molecule CCCCN1CCC2(CC1)OCCN2S(=O)(=O)c1ccc(C(C)=O)cc1 [Compound C0101M] ?
138.2%

And what about the molecule CC(=O)c1ccc(S(=O)(=O)N2C(Cc3c[nH]cn3)C(=O)NC23CCNCC3)cc1 (stereo not drawn) [Compound C0119M] ?
105.7%

And what about the molecule COc1ccc(NC(=O)N2CCC3(CC2)NCCO3)cc1 [Compound C0151M-2] ?
346.8%

And what about the molecule `CC(=O)c1ccc(S(=O)(=O)N2CCC3(CC2)OCCN3S(C)(=O)=O)cc1` ?
98.6%

And what about the molecule `O=[N+]([O-])c1ccc(S(=O)(=O)N2CCC3(CC2)NCCS3)cc1` ?
173.7%

And what about the molecule `COc1ccc(S(=O)(=O)N2CCC3(CC2)NCCO3)cc1` ?
207.2%

And what about the molecule CN1CCC2(CC1)NC(=O)CN2Cc1ccccc1 [Compound C0104M] ?
188.2%

And what about the molecule CC(=O)c1ccc(S(=O)(=O)N2CC(CN(C)C)OC23CCN(C)CC3)cc1 (stereo not drawn) [Compound C0108M] ?
205.6%

And what about the molecule `O=[N+]([O-])c1ccc(S(=O)(=O)N2CCC3(CC2)NCCO3)cc1` ?
145.8%

And what about the molecule O=C1CN(Cc2ccccc2)C2(CCN(C3CCCCC3)CC2)N1 [C0137M P7] ?
180.8%

And what about the molecule `CC(=O)N1CCSC12CCN(S(=O)(=O)c1ccc([N+](=O)[O-])cc1)CC2` ?
110.3%

And what about the molecule `COc1ccc(S(=O)(=O)N2CCOC23CCNCC3)cc1` ?
233.2%

And what about the molecule CCOC(=O)CN1CCC2(CC1)OCCN2S(=O)(=O)c1ccc(C(C)=O)cc1 [Compound C0099M] ?
157.2%

And what about the molecule CC(=O)c1ccc(S(=O)(=O)N2CC(CN(C)C)OC23CCN(CC2CC2)CC3)cc1 (stereo not drawn) [Compound C0128M] ?
197.8%

And what about the molecule C[C@@H](NC(=O)[C@@H](N)Cc1ccc(O)cc1)C(=O)NCC(=O)N(C)[C@@H](Cc1ccccc1)C(=O)NCCO [DAMGO, [D-Ala2, N-MePhe4, Gly-ol]-enkephalin, reference compound] ?
168.5%

And what about the molecule CCN1CCC2(CC1)OCCN2S(=O)(=O)c1ccc(C(C)=O)cc1 [Compound C0094M] ?
172.5%

====

For each entry below, report its MOR agonist activity ([35S]GTPgS binding to Gao) value.
molecular target: mu opiate receptor (MOR) (Rattus norvegicus); construct: from tissue; host or cells: striatum (membrane preparation); assay: MOR agonist activity using [35S]GTPgS binding assay in striatal membranes; format: biochemical; details: 1 μM compound as agonist; Series C-1 table
Record the value in %, omitting the unit from your answer.

For O=S(=O)(c1ccc(Oc2ccccc2)cc1)N1CCC2(CC1)OCCN2S(=O)(=O)c1ccc(Oc2ccccc2)cc1 [Compound C0149M] , what is its reported MOR agonist activity ([35S]GTPgS binding to Gao)?
406.7

And what about the molecule `COc1cccc(S(=O)(=O)N2CCC3(CC2)OCCN3S(=O)(=O)c2cccc(OC)c2)c1` ?
93.8

And what about the molecule `O=C(O)c1ccc(C(=O)N2CCC3(CC2)OCCN3S(=O)(=O)c2ccc(C(=O)O)cc2)cc1` ?
192.0

And what about the molecule `NS(=O)(=O)c1ccc(S(=O)(=O)N2CCC3(CC2)OCCN3S(=O)(=O)c2ccc(S(N)(=O)=O)cc2)cc1` ?
167.9

And what about the molecule O=C1CN(Cc2ccccc2)C2(CCN(S(=O)(=O)c3cc(Cl)c(O)c(Cl)c3)CC2)N1 [Compound C0139M] ?
206.6

And what about the molecule `COc1ccc(C(=O)N2CCC3(CC2)OCCN3C(=O)c2ccc(OC)cc2)cc1` ?
284.5

And what about the molecule `CC(=O)c1ccc(C(=O)N2CCOC23CCN(S(=O)(=O)c2ccc(C(C)=O)cc2)CC3)cc1` ?
157.2

And what about the molecule O=S(=O)(c1csc2ccccc12)N1CCC2(CC1)OCCN2S(=O)(=O)c1csc2ccccc12 [Compound C0150M] ?
423.1

And what about the molecule `O=C(c1ccc([N+](=O)[O-])cc1)N1CCC2(CC1)OCCN2C(=O)c1ccc([N+](=O)[O-])cc1` ?
202.0

And what about the molecule CC(=O)c1ccc(S(=O)(=O)N2CCC3(CC2)NC(=O)CN3Cc2ccccc2)cc1 [Compound C0085M] ?
246.2

And what about the molecule `COc1ccc(C(=O)N2CCOC23CCN(S(=O)(=O)c2ccc(OC)cc2)CC3)cc1` ?
176.6

And what about the molecule `COc1ccc(S(=O)(=O)N2CCC3(CC2)OCCN3S(=O)(=O)c2ccc(OC)cc2)cc1` ?
308.2

And what about the molecule `O=S(=O)(c1ccc(Br)cc1F)N1CCC2(CC1)OCCN2S(=O)(=O)c1ccc(Br)cc1F` ?
236.6

And what about the molecule `O=S(=O)(c1ccc(F)c(F)c1)N1CCC2(CC1)OCCN2S(=O)(=O)c1ccc(F)c(F)c1` ?
259.1

And what about the molecule `O=S(=O)(c1ccc(Br)c(C(F)(F)F)c1)N1CCC2(CC1)OCCN2S(=O)(=O)c1ccc(Br)c(C(F)(F)F)c1` ?
265.4

====

For each entry below, report its MOR agonist activity ([35S]GTPgS binding to Gao) value.
molecular target: mu opiate receptor (MOR) (Rattus norvegicus, UniProt P33535); construct: from tissue; host or cells: striatum (membrane preparation); experiment: MOR agonist activity using [35S]GTPgS binding assay in striatal membranes; assay type: biochemical; conditions: 1 μM compound as agonist; Series C-2 table
Sequence (P33535 whole entry): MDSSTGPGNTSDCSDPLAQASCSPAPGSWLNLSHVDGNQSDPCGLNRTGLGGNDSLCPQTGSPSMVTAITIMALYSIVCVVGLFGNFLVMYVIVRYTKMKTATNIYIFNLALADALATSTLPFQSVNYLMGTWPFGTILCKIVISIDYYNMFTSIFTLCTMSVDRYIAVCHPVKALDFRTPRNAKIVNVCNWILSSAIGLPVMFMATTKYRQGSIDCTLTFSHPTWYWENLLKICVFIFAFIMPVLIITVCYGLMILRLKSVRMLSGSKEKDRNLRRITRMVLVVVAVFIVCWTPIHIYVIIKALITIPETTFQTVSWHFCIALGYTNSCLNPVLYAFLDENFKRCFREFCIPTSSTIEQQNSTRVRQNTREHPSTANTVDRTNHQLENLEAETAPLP
Record the value in %, omitting the unit from your answer.

For `O=[N+]([O-])c1ccc(S(=O)(=O)N2CCC3(CC2)NCCO3)cc1` , what is its reported MOR agonist activity ([35S]GTPgS binding to Gao)?
308.3

And what about the compound O=S(=O)(c1ccccc1Oc1ccccc1)N1CCC2(CC1)NCCO2 [Compound C0149M-2] ?
406.7

And what about the compound CCN1CCC2(CC1)OCCN2S(=O)(=O)c1ccc(OC)cc1 [Compound C0089M] ?
295.3

And what about the compound `COc1ccc(S(=O)(=O)N2CCSC23CCNCC3)cc1` ?
286.8

And what about the compound COc1ccc(S(=O)(=O)N2CCC3(NCCO3)C3CCCCC32)cc1 (stereo not drawn) [Compound C0144M-2] ?
295.9

And what about the compound CS(=O)(=O)c1ccc(S(=O)(=O)N2CCOC23CCN(CC2CC2)CC3)cc1 [Compound C0126M] ?
265.3

And what about the compound O=C1CN(Cc2ccccc2)C2(CCN(C3CCCCC3)CC2)N1 [C0137M P7] ?
193.8

And what about the compound CCN1CCC2(CC1)OCCN2S(=O)(=O)c1ccc(C(C)=O)cc1 [Compound C0094M] ?
263.5

And what about the compound CC(=O)c1ccc(S(=O)(=O)N2CC(=O)NC23CCNCC3)cc1 [Compound C0086M] ?
265.3

And what about the compound CCCCN1CCC2(CC1)OCCN2S(=O)(=O)c1ccc(C(C)=O)cc1 [Compound C0101M] ?
274.3

And what about the compound `COc1ccc(S(=O)(=O)N2CCOC23CCNCC3)cc1` ?
313.9

And what about the compound `COc1ccc(S(=O)(=O)N2CCC3(CC2)NCCO3)cc1` ?
288.4

And what about the compound C=CCN1CCC2(CC1)OCCN2S(=O)(=O)c1ccc(C(C)=O)cc1 [Compound C0096M] ?
328.9

And what about the compound Cc1ccc(S(=O)(=O)N2CCOC23CCN(CC2CC2)CC3)cc1 [Compound C0134M] ?
207.3

And what about the compound `O=[N+]([O-])c1ccc(S(=O)(=O)N2CCC3(CC2)NCCS3)cc1` ?
280.1

And what about the compound CC(=O)c1ccc(S(=O)(=O)N2C(Cc3c[nH]cn3)C(=O)NC23CCNCC3)cc1 (stereo not drawn) [Compound C0119M] ?
167.8

And what about the compound `CC(=O)c1ccc(S(=O)(=O)N2CCC3(CC2)OCCN3S(=O)(=O)c2ccc(C(C)=O)cc2)cc1` ?
305.0

And what about the compound CCCCN1CCC2(CC1)OCCN2S(=O)(=O)c1ccc(OC)cc1 [Compound C0102M] ?
272.0
